- TESTED_SYSTEM: Protein artemis (Homo sapiens) (UniProt Q96SD1)
- Sequence (Q96SD1 whole entry, looked up): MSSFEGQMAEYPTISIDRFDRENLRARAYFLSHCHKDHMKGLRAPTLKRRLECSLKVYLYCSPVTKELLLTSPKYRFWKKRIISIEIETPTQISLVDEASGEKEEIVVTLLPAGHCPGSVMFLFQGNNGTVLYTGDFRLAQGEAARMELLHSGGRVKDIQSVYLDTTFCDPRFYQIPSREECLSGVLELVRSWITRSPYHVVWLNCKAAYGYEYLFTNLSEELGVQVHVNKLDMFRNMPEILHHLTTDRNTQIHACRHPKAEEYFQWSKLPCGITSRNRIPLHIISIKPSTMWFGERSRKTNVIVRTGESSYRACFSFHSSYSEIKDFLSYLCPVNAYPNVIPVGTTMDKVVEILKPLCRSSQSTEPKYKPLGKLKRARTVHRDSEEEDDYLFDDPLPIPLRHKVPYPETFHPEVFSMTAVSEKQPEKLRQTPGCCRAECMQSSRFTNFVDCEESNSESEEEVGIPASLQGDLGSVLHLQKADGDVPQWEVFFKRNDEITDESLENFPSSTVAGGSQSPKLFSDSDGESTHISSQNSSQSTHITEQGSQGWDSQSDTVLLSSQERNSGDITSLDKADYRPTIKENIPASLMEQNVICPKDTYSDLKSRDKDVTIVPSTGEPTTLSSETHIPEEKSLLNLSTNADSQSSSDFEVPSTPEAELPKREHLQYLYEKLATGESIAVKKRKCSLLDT
- TEST_DETAILS: blockers of Artemis DNA hairpin overhang cleavage – biochemical, fluorescence intensity, FAM/BHQ-1 hairpin substrate, primary screen (AID 686954)
- DETAILS: recombinant Artemis, quenched FAM hairpin cleavage fluorescence; at 10 µM
Among all 30,000 compounds or so, about 240 (0.8%) were called active.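 Rule for the calls: active = at 10 µM dose, at least 30% inhibition, measured as corrected fluorescence normalized to stimulator and neutral control wells; inactive = the rest.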 What follows is part of a selection rich in actives, with near analogues and random picks from the rest. Peptide text beside a SMILES is read from it. * marks the point of attachment. Bz = O=C(c1ccccc1)*
Outcome codes: active, inactive

# COMPOUND, TESTED_SYSTEM, CATEGORY
data = [
    ("COCCCNCC(=O)Nc1sc(C)c(C)c1C(=O)OC", "Protein artemis (Homo sapiens) (UniProt Q96SD1)", "inactive"),
    ("O=c1c2ccccc2nc2n1C(CSc1ccc(F)cc1)CN2 (stereo not given)", "Protein artemis (Homo sapiens) (UniProt Q96SD1)", "inactive"),
    ("CCC1(C)Cc2c(sc3nc(SC)nc(N)c23)CO1 (stereo not given)", "Protein artemis (Homo sapiens) (UniProt Q96SD1)", "inactive"),
    ("O=C(NC1CCC(O)CC1)c1ccc(S(=O)(=O)NCc2ccco2)cc1 (stereo not given)", "Protein artemis (Homo sapiens) (UniProt Q96SD1)", "inactive"),
    ("Cc1nn2c3ccccc3nc2n(C)c1=O", "Protein artemis (Homo sapiens) (UniProt Q96SD1)", "inactive"),
    ("CC(C)Oc1ccc(C(=O)NC(C)(C)CO)cc1", "Protein artemis (Homo sapiens) (UniProt Q96SD1)", "inactive"),
    ("O=c1c2ccccc2nc2n1C(CSc1ccc(Cl)cc1)CN2 (stereo not given)", "Protein artemis (Homo sapiens) (UniProt Q96SD1)", "inactive"),
    ("Cc1cc2c(cc1C)N(C(=O)CN1C(=O)c3ccccc3C1=O)C(C)(C)c1ssc(=S)c1-2", "Protein artemis (Homo sapiens) (UniProt Q96SD1)", "inactive"),
    ("O=C(NCC1CCCO1)c1ccc2ccccc2n1 (stereo not given)", "Protein artemis (Homo sapiens) (UniProt Q96SD1)", "inactive"),
    ("CCCC1(C(=O)OCC)NC(c2ccc(N(C)C)cc2)C2C(=O)N(c3ccc4c(c3)OCCO4)C(=O)C21 (stereo not given)", "Protein artemis (Homo sapiens) (UniProt Q96SD1)", "inactive"),
    ("CCN(CC)c1nc(-c2ccccc2)cc(C(F)(F)F)c1C#N", "Protein artemis (Homo sapiens) (UniProt Q96SD1)", "inactive"),
    ("Cc1ccc(NC(=O)Nc2ccc3oc(C)nc3c2)cc1", "Protein artemis (Homo sapiens) (UniProt Q96SD1)", "inactive"),
    ("CCN(CC)Cc1cc(C(C)=O)ccc1O", "Protein artemis (Homo sapiens) (UniProt Q96SD1)", "inactive"),
    ("CCn1c(COc2ccccc2)nnc1SCC(=O)Nc1ccc2c(c1)OCCO2", "Protein artemis (Homo sapiens) (UniProt Q96SD1)", "inactive"),
    ("O=C(Cn1c(-c2cscn2)nc2ccccc21)Nc1ccc(Cl)cc1", "Protein artemis (Homo sapiens) (UniProt Q96SD1)", "inactive"),
    ("CCOC(=O)Nc1sc(C(=O)N(C)C)c(C)c1C(=O)OCC", "Protein artemis (Homo sapiens) (UniProt Q96SD1)", "inactive"),
    ("COc1ccc(CC(=O)Nc2nc3n(n2)C(c2ccccc2)CC(=O)N3)cc1OC (stereo not given)", "Protein artemis (Homo sapiens) (UniProt Q96SD1)", "inactive"),
    ("Cc1cc(N2C(=O)C(=O)/C(=C(/O)c3ccc(Cl)cc3)C2c2cccc(Br)c2)no1 (stereo not given)", "Protein artemis (Homo sapiens) (UniProt Q96SD1)", "active"),
    ("COc1ccc(/C(O)=C2/C(=O)C(=O)N(c3nc(C)c(C)s3)C2c2ccco2)cc1 (stereo not given)", "Protein artemis (Homo sapiens) (UniProt Q96SD1)", "inactive"),
    ("O=C(/C=N/O)Nc1ccccc1", "Protein artemis (Homo sapiens) (UniProt Q96SD1)", "inactive"),
    ("COc1ccc(-c2c(C(C)=O)c(C)nc3sc4c(=O)n(-c5ccc(C)cc5)nnc4c23)cc1", "Protein artemis (Homo sapiens) (UniProt Q96SD1)", "inactive"),
    ("O=C(Nc1nnc(SCc2ccccc2)s1)c1ccco1", "Protein artemis (Homo sapiens) (UniProt Q96SD1)", "inactive"),
    ("CSC1=N/C(=C\\C=C\\c2cccs2)C(=O)S1", "Protein artemis (Homo sapiens) (UniProt Q96SD1)", "inactive"),
    ("O=C(O)C1CC=CCC1C(=O)Nc1ccccc1C(=O)N1CCN(c2ccccc2)CC1 (stereo not given)", "Protein artemis (Homo sapiens) (UniProt Q96SD1)", "inactive"),
    ("COC(=O)C(C(=O)Nc1cccc(C)n1)C1CCCCCC1 (stereo not given)", "Protein artemis (Homo sapiens) (UniProt Q96SD1)", "inactive"),
    ("Cc1cc(C)n2nc(C(=O)NC(C)(C)C)nc2n1", "Protein artemis (Homo sapiens) (UniProt Q96SD1)", "inactive"),
    ("Cc1ccc(N2CCN(C3=NC(=O)/C(=C\\c4cccs4)S3)CC2)cc1", "Protein artemis (Homo sapiens) (UniProt Q96SD1)", "active"),
    ("COc1ccccc1NS(=O)(=O)N(C)C", "Protein artemis (Homo sapiens) (UniProt Q96SD1)", "inactive"),
    ("CC(C)C(c1nnnn1CCc1ccccc1)N1CCN(C(=O)c2ccco2)CC1 (stereo not given)", "Protein artemis (Homo sapiens) (UniProt Q96SD1)", "inactive"),
    ("CCN1CCN(C(=O)C2(NC(=O)Nc3cccc(F)c3)CCCCC2)CC1", "Protein artemis (Homo sapiens) (UniProt Q96SD1)", "inactive"),
    ("O=C(NC(Cc1ccccc1)C(=O)N1CCCC1C(=O)O)c1ccccc1 (stereo not drawn) (Bz-Phe-Pro-OH; configuration not given here)", "Protein artemis (Homo sapiens) (UniProt Q96SD1)", "inactive"),
    ("COc1ccc(-n2nnnc2SCc2nc(N)nc(N3CCOCC3)n2)cc1", "Protein artemis (Homo sapiens) (UniProt Q96SD1)", "inactive"),
    ("CN(C)CCNC(=O)Nc1cccc(Cl)c1Cl", "Protein artemis (Homo sapiens) (UniProt Q96SD1)", "inactive"),
    ("CC(C)(CSc1nncn1/N=C/c1ccco1)NS(=O)(=O)c1ccc(Cl)cc1", "Protein artemis (Homo sapiens) (UniProt Q96SD1)", "inactive"),
    ("O=C(Oc1cccnc1)c1cc2ccccc2oc1=O", "Protein artemis (Homo sapiens) (UniProt Q96SD1)", "inactive"),
    ("C=CCn1c(N)cc(=O)nc1SCC(=O)Nc1cccc2ccccc12", "Protein artemis (Homo sapiens) (UniProt Q96SD1)", "inactive"),
    ("CCN1CCN(C(=O)/C=C\\C(=O)O)CC1", "Protein artemis (Homo sapiens) (UniProt Q96SD1)", "inactive"),
    ("CCN(Cc1ccncc1)C(=O)c1cccc(S(=O)(=O)N2CCOCC2)c1", "Protein artemis (Homo sapiens) (UniProt Q96SD1)", "inactive"),
    ("Cc1ccc(/C=N/NC(=O)C(NC(=O)c2ccccc2)c2n[nH]c(=O)c3ccccc23)cc1 (stereo not given)", "Protein artemis (Homo sapiens) (UniProt Q96SD1)", "inactive"),
    ("CSc1nc(C)cc(SC(C(C)=O)C(=O)Nc2ccccc2)n1 (stereo not given)", "Protein artemis (Homo sapiens) (UniProt Q96SD1)", "inactive"),
    ("COC(=O)/C=C/C(=O)NCc1ccco1", "Protein artemis (Homo sapiens) (UniProt Q96SD1)", "inactive"),
    ("O=C(COc1cc(Cl)c(Cl)cc1Cl)NC(=O)NC1CCCC1", "Protein artemis (Homo sapiens) (UniProt Q96SD1)", "inactive"),
    ("NC(=O)C1CCN(C(=O)c2ccc(C(F)(F)F)cc2)CC1", "Protein artemis (Homo sapiens) (UniProt Q96SD1)", "inactive"),
    ("O=C(Nc1ccc2c(c1)CCC2)c1cccc(S(=O)(=O)N2CCN(c3ccc(F)cc3)CC2)c1", "Protein artemis (Homo sapiens) (UniProt Q96SD1)", "inactive"),
    ("COc1cccc(-c2cc(C(=O)N/N=C/c3ccc(OC)c(COC(C)=O)c3)c3ccccc3n2)c1", "Protein artemis (Homo sapiens) (UniProt Q96SD1)", "inactive"),
]
